Test: qHTS Primary assay for Inhibitors of Plasmodium falciparum Dd2 growth in vitro; also: nearly all actives have a fitted effect of over 65% in size
Conditions: P. falciparum Dd2 growth, SYBR Green, 72 h; series mostly up to 28.9 µM
Excerpt: Malaria, a parasitic disease spread to humans through the bite of a Plasmodium infected Anopheles mosquito, continues to be a global health burden affecting millions of people, with an estimated 228 million cases and 405,000 deaths in 2018. […] Malaria-vivax Assay Protocol: PROTOCOL TABLE (as described by Inglese et al., 2007) SEQUENCE No. (e.g., 1, 2, 3, etc.); […] […] Compound Management for Quantitative High-Throughput Screening. […]
The whole screen tested about 120,000 compounds, of which about 5,300 (4.4%) were called active. About 22% were inconclusive and are not listed. Calls follow the shape of the dose curve; as a rule, active = well fitted inhibition curve with a large enough effect; inconclusive = small, poorly fitted or top-dose-only effect; inactive = no such curve, though single readings can be large or run the other way. Shown is part of a subset that was picked to be rich in actives.
Select the matching outcome among active, inactive

molecule	assigned.class
CSc1nc(-c2ccc(F)cc2)nc2c1Cc1c(CO)cnc(C)c1O2	inactive

Returns: the outcome recorded for O=C1CC(c2ccccc2)N(Cc2ccncc2)CCCN(Cc2cccnc2)CCN1 (stereo not given) in this assay. active

Any idea what this test logged for Cc1ccccc1CNC(=O)C1CCCN(Cc2cccnc2)CCC(=O)NCC1 (stereo not given) ? inactive

Query: recorded result category for COC(=O)[C@@H](Cc1cccnc1)NC(=O)[C@H]1CN(S(=O)(=O)c2ccccc2)CCN1C(=O)N1CCOCC1 in this test inactive
